Consider the following compounds and their measured IC50 readings.
- tgt: Aminopeptidase N (Plasmodium falciparum FcB1/Columbia, UniProt O96935)
- Sequence (O96935 whole entry): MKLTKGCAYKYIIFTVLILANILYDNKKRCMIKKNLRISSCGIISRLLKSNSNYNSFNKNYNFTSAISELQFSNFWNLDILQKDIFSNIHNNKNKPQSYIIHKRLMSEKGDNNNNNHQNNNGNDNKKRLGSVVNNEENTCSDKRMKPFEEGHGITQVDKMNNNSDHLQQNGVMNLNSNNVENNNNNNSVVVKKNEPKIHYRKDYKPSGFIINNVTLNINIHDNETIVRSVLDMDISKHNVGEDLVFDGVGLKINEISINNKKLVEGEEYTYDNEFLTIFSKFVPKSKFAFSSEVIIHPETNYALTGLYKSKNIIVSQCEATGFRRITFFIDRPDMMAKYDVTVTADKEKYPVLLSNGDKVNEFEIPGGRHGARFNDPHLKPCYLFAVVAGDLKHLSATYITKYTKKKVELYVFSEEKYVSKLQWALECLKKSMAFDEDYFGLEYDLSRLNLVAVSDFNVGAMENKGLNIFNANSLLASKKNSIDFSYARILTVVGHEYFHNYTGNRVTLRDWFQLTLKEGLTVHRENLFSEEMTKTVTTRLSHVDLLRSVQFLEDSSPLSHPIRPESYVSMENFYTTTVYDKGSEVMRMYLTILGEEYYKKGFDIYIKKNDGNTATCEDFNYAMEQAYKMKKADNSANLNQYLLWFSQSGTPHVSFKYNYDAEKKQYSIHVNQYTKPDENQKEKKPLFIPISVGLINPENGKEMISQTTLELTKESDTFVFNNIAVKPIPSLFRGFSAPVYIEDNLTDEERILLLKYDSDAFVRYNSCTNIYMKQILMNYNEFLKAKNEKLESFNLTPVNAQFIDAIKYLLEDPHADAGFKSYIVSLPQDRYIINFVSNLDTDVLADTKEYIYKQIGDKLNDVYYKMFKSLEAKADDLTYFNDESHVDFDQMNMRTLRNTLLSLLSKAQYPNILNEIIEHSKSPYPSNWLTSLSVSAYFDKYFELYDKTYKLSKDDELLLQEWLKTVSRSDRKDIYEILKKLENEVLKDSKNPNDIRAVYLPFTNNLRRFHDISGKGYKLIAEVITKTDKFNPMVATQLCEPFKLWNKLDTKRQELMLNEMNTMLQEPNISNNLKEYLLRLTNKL
- assayProtocol: P. falciparum M1AAP inhibitors, biochemical, fluorogenic H-Leu-NHMec substrate, 1536-well (AID 1445)
- Set-up: species or system Plasmodium falciparum 3D7, 3D7
The source made the active and inactive calls. How the calls were made is not given here.
valueType: IC50

structuresmilesstring=COc1cc(NC(=O)CSc2ncnc3scc(-c4ccccc4)c23)c(C(=O)O)cc1OC valuetype=IC50 measurement="40.1 µM (active)"
structuresmilesstring=O=C(Nc1cc(S(=O)(=O)N2CCCCC2)ccc1O)c1ccccc1NS(=O)(=O)c1ccc(F)c(F)c1 valuetype=IC50 measurement="69.4 µM (active)"
structuresmilesstring=O=C(NC1CCN(C(=O)NCc2ccccc2)CC1)c1ccco1 valuetype=IC50 measurement="93.2 µM (active)"
structuresmilesstring=CN1CCN(Cc2nc3ccccc3c(=O)n2Cc2nc(-c3cccc([N+](=O)[O-])c3)cs2)CC1 valuetype=IC50 measurement="79.7 µM (active)"
structuresmilesstring=COc1ccc(/C=N/NC(=O)c2cc(O)c(O)c(O)c2)cc1Cn1cc([N+](=O)[O-])cn1 valuetype=IC50 measurement="92.6 µM (active)"
